target-of-assay: HA of H7N3 A/NIBRG/60 (A/mallard/NL/12/00) (influenza A virus)
method: cell-based or functional assay
metric: VNA titer (nM)
Report as a plain number; the unit nM is understood.

- binder: "SD1049 (VHH) VHH: EVQLVESGGGLVQAGGSLRLSCAASGRTLSLYSVGWFRQAPGKEREFVATIGWNSGRTFYVDSMKGRFTISRDNAKNTVYLQMNDLKVEDTAVYYCAAAKGPLRLSNQADYWGQGTQVTVSS"
  VNA titer (nM): 115

Let us move to another entry and its VNA titer.
Task item: For SD1025 (VHH) VHH: EVQLVESGGGLVQAGGSLRLSCAASGRTYAMAWFRQAPGKEREFVAHINALGTRTYYSDSVQGRFTISRDNAKNTEYLQMNSLKPEDTAVYYCAAGGQWRAAPVADAAQYDFWGQGTQVTVSS , write its VNA titer.
Reply: 52
